Target: CLK1 (Homo sapiens)
Construct: full-length human kinases from Carna Biosciences; purchased Carna Biosciences 04-126
Sequence (P49759 1-526 isoform P49759-3): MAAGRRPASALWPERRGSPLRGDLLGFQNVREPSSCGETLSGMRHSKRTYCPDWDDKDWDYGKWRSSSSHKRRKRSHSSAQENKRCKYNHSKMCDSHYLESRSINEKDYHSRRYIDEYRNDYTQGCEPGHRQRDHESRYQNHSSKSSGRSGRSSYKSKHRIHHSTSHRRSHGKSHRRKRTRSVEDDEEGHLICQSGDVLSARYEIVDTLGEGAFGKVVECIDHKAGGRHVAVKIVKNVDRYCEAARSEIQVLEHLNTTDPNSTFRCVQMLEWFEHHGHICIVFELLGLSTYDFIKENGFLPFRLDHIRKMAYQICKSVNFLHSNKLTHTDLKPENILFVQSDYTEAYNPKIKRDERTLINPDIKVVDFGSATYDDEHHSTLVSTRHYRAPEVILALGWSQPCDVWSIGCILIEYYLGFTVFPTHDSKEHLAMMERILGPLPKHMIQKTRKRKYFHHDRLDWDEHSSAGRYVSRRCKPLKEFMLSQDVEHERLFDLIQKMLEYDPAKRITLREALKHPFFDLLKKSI
Test: Kinase TR-FRET assay, CLK1
Format: biochemical
PROPERTY_LABEL: IC50 (µM)

Take a look at these entries with their results.
- COMPOUND: "Cc1nc(NCc2c(Cl)cccc2Cl)c2c(-c3ccnc(N)c3)c[nH]c2n1 [Example 61]"
  IC50 / µM: 0.0129
- COMPOUND: "Cc1nc(NCc2c(C)cccc2Cl)c2c(-c3ccnc(N)c3)c[nH]c2n1 [Example 58]"
  IC50 / µM: 0.0245
- COMPOUND: "Cc1cc(NCc2c(F)cccc2F)c2c(-c3ccnc(N)c3)c[nH]c2n1 [Example 213]"
  IC50 / µM: 0.0172

[I] Cc1nc(COc2c(F)cccc2F)c2c(-c3ccnc(N)c3)c[nH]c2n1 [Example 166]
[II] Cc1nc(-c2ccc3c(c2)OCO3)c2c(-c3ccnc(N)c3)c[nH]c2n1 [Example 179]
Ask | Between these two entries, I and II , state which has the higher IC50. Answer by stating the label of the chosen item.
Reply | I
